# studySystem: Dual specificity calcium/calmodulin-dependent 3',5'-cyclic nucleotide phosphodiesterase 1B (Homo sapiens, UniProt Q01064)
# Sequence (Q01064 whole entry): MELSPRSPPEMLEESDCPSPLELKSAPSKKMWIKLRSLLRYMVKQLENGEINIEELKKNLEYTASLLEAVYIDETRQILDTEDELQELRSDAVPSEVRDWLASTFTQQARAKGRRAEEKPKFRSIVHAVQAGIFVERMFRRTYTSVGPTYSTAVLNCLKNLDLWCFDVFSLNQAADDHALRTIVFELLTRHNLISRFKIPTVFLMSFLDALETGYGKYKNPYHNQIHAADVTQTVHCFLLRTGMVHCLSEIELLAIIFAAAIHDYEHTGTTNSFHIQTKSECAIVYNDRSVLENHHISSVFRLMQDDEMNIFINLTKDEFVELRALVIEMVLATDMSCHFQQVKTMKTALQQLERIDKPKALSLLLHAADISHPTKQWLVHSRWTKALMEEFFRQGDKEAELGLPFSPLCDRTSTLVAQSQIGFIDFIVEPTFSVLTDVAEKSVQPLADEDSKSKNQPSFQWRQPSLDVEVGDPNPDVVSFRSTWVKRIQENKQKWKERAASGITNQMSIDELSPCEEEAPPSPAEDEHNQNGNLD
# assaySummary: Inhibition of PDE1B
pIC50: −log10 of the molar value.
observationType: pIC50

Specify measured pIC50 for CCCOCCn1c(=O)nc(NC2CCC(O)CC2)c2nnc(-c3ccc(OC)nc3)cc21 (stereo unspecified) .
< 5.70

* * *

# assaySummary: Solubility of the compound at pH 6.5
# Format: physicochemical
# runConditions: buffer
observationType: solubility (µM)
Only the number, expressed in µM, is required.

For the molecule CCCOCCn1c(=O)c(NC2CCC(O)CC2)nc2cnc(-c3ccc(OC)nc3)cc21 (configuration not stated) , give its measured solubility value.
21

* * *

# studySystem: Acetylcholinesterase (Homo sapiens)
# Sequence (P22303 whole entry): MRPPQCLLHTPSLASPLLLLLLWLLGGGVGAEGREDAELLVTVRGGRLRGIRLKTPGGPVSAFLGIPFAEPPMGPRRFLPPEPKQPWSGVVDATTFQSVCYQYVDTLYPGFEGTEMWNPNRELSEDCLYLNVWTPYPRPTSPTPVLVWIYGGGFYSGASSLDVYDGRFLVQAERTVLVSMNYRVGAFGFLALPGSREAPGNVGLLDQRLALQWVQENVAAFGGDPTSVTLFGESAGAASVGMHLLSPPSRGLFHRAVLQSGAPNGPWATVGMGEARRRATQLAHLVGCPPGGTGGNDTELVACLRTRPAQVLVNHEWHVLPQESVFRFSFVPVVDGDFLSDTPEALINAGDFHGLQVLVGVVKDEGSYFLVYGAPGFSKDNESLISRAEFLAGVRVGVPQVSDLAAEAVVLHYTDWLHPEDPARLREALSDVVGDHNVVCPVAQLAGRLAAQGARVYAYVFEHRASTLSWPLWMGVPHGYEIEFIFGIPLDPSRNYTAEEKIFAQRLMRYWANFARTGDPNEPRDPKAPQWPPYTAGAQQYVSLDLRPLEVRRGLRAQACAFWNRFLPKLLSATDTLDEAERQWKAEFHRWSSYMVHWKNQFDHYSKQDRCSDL
observationType: pIC50
When answering, recall that pIC50 equals minus log10 of the concentration in mol/L, and write that number alone.

Tell me pIC50 reported for CCCOCCn1c(=O)nc(NC2CCC(O)CC2)c2nnc(-c3ccc(OC)nc3)cc21 (stereo unspecified)
5.25

* * *

# studySystem: UniProtKB Q13946
# Sequence (Q13946 whole entry): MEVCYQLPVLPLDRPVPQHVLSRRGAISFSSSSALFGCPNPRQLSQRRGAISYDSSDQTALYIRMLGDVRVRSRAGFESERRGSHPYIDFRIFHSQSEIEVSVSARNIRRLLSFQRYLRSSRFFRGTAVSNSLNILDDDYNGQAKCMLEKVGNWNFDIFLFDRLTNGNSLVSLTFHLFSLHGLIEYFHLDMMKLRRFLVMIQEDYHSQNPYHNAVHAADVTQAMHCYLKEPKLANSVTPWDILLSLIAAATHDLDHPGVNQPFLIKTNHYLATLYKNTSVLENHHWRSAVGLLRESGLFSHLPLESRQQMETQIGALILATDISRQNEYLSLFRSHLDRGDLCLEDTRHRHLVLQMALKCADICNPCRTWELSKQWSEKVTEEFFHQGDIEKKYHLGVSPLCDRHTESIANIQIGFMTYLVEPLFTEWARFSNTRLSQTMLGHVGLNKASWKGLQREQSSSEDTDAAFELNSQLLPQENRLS
pIC50: −log10 of the molar value.
observationType: pIC50

State pIC50 on UniProtKB Q13946. Entry: CCCOCCn1c(=O)nc(NC2CCC(O)CC2)c2nnc(-c3ccc(OC)nc3)cc21 (stereo unspecified)
< 5.70

* * *

# assaySummary: Volume of distribution in rat
# Type: ADME, organism-based
# runConditions: in vivo
observationType: Vd (L/kg)
Number in L/kg, nothing else.

CCCOCCn1c(=O)c(NC2CCC(O)CC2)nc2cnc(-c3ccc(OC)nc3)cc21 (configuration not stated) = 1.35

Specify reported Vd for the compound shown: CCCOCCn1c(=O)nc(NC2CCC(O)CC2)c2nnc(-c3ccc(OC)nc3)cc21 (configuration not stated)
0.6

* * *

# studySystem: High affinity cAMP-specific and IBMX-insensitive 3',5'-cyclic phosphodiesterase 8A (Homo sapiens)
# Sequence (O60658 whole entry): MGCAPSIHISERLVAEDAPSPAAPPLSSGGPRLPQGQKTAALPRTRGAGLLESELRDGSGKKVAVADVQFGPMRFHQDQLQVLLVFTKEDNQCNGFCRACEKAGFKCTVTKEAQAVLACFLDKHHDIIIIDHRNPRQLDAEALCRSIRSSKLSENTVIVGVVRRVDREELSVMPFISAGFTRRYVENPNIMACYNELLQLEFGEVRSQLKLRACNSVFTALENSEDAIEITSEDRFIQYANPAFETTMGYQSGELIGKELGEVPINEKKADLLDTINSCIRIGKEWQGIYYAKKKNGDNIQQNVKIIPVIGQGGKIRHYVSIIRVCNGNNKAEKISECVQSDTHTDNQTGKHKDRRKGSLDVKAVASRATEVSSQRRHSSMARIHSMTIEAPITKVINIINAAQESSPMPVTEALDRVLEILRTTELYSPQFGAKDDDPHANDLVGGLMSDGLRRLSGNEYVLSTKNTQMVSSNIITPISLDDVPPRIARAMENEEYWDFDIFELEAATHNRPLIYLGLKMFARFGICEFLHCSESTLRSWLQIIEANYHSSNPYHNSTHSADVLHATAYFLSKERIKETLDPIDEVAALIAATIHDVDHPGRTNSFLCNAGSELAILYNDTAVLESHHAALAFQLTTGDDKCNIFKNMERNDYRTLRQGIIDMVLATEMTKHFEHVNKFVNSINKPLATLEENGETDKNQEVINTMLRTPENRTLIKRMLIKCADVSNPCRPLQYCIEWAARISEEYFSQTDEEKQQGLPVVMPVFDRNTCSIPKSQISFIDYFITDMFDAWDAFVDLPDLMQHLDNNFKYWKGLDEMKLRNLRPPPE
# assaySummary: Inhibition of PDE8A
pIC50: −log10 of the molar value.
observationType: pIC50

Read the entry CCCOCCn1c(=O)nc(NC2CCC(O)CC2)c2nnc(-c3ccc(OC)nc3)cc21 (stereo unspecified) and write its reported pIC50.
< 5.70

* * *

This section presents compounds with their documented clearance values.
# assaySummary: Clearance in dog at 2 mg/kg
# Format: ADME, organism-based, Canis lupus familiaris
# Set-up: dose 2 mg/kg
# runConditions: in vivo
Give just the numeric value; mL/min/kg need not be written.

CCCOCCn1c(=O)nc(NC2CCC(O)CC2)c2nnc(-c3ccc(OC)nc3)cc21 (configuration not stated) = 1.6

Return clearance (reported value) for this compound: CCCOCCn1c(=O)c(NC2CCC(O)CC2)nc2cnc(-c3ccc(OC)nc3)cc21 (configuration not stated)
5.5

* * *

# studySystem: 3',5'-cyclic-AMP phosphodiesterase 4A (Homo sapiens, UniProt P27815)
# Sequence (P27815 whole entry): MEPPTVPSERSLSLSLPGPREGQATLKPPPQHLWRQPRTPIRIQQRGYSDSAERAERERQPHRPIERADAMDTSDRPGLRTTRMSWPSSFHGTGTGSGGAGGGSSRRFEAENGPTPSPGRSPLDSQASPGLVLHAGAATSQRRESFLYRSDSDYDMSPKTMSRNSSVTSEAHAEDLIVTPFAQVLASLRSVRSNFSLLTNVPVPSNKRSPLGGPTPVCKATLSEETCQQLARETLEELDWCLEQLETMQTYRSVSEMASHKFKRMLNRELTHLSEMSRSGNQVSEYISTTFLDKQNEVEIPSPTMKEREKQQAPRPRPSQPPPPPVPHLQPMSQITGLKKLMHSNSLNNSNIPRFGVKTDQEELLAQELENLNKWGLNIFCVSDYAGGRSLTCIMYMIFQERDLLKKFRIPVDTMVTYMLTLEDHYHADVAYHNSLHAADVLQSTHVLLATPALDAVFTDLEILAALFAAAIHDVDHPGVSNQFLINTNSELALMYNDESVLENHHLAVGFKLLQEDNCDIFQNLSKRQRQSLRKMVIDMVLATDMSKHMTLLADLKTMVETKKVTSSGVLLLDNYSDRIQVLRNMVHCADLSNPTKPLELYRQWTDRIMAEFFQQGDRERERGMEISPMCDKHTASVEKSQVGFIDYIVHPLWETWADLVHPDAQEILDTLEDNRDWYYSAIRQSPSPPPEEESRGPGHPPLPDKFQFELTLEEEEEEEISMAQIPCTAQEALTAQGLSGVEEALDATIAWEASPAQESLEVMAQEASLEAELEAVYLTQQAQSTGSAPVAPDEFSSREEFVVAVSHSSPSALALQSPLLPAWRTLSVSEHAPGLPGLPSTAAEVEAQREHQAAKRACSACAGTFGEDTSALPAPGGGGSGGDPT
# assaySummary: Inhibition of PDE4A
observationType: IC50

Please give measured IC50 of the following entry: CCCOCCn1c(=O)nc(NC2CCC(O)CC2)c2nnc(-c3ccc(OC)nc3)cc21 (stereo unspecified)
> 2000 nM

* * *

# assaySummary: Clearance in rat at 2 mg/kg at pH 5
# Format: ADME, organism-based
# Design: dose 2 mg/kg
# runConditions: in vivo
observationType: clearance
Remember to put the unit after the number in your answer.

CCCOCCn1c(=O)c(NC2CCC(O)CC2)nc2cnc(-c3ccc(OC)nc3)cc21 (configuration not stated) = 5.5 mL/min/kg

Now for the compound whose clearance we want.
Query clearance for CCCOCCn1c(=O)nc(NC2CCC(O)CC2)c2nnc(-c3ccc(OC)nc3)cc21 (configuration not stated)
2.4 mL/min/kg
